Cited source for all entries: ChEMBL document CHEMBL4680127

Measured pIC50, listed per entry for reference.
- Study System: Human immunodeficiency virus type 1 reverse transcriptase (Human immunodeficiency virus 1)
- Assay Protocol: Inhibition of HIV-1 NL4-3 reverse transcriptase expressed in Escherichia coli assessed as polymerization by one-step real-time RT-PCR assay
pIC50: −log10 of the molar value.
Measured Property: pIC50

1) COc1ccc2cc(C(=O)N[C@@H](Cc3ccccc3)[C@H](O)CN(CC(C)C)S(=O)(=O)c3ccc(N)cc3)c(=O)oc2c1
3.15
2) COc1ccc(S(=O)(=O)N(CC(C)C)C[C@@H](O)[C@H](Cc2ccccc2)NC(=O)c2cc3ccc(O)cc3oc2=O)cc1
3.38
3) CC(C)CN(C[C@@H](O)[C@H](Cc1ccccc1)NC(=O)c1cc2ccc(O)cc2oc1=O)S(=O)(=O)c1ccc(N)cc1
3.26
4) CC(C)CN(C[C@@H](O)[C@H](Cc1ccccc1)NC(=O)Cc1cc(=O)oc2cc(N(C)C)ccc12)S(=O)(=O)c1ccc(N)cc1
3.24
